protocol-description: qHTS of pediatric cancer cell lines to identify multiple opportunities for drug repurposing: Primary screen for SJ-GBM2 cells (AID 1347091)
assay-conditions: SJ-GBM2 viability, CellTiter-Glo luminescence, 48 h; series mostly up to 46 µM
Results filed as inconclusive are left out. Activity calls are given as the source filed them. Calls follow the shape of the dose curve; as a rule, active = well fitted cell-killing curve with a large enough effect; inconclusive = small, poorly fitted or top-dose-only effect; inactive = no such curve, though single readings can be large or run the other way.
A correct response names exactly one class from active, inactive

What call does the record list for NC(=O)n1c(O)c(C(=O)c2cccs2)c2cc(Cl)ccc21 ?
active

What call does the record list for CN1CCN(c2cc3c(cc2F)c(=O)c(C(=O)O)cn3-c2ccc(F)cc2)CC1 ?
inactive

What call does the record list for O=C1OC2(c3ccccc31)c1cc(Br)c(O)c(Br)c1Oc1c2cc(Br)c(O)c1Br ?
inactive

What call does the record list for CCOc1cc(OCC)c(C(=O)CCC(=O)O)cc1OCC ?
inactive

What call does the record list for C/C=C/C=N/NC(=O)c1ccncc1 ?
inactive

What call does the record list for Nc1ccc(S(=O)(=O)Nc2cnc3ccccc3n2)cc1 ?
inactive

What call does the record list for CCOC(=O)C(C#N)=C(c1ccccc1)c1ccccc1 ?
inactive

What call does the record list for Clc1cccc(C(c2ccc3nc[nH]c3c2)n2ccnc2)c1 (stereo unspecified) ?
inactive

What call does the record list for CCc1cc(Cl)c(OC)c(C(=O)NC[C@@H]2CCCN2CC)c1O ?
inactive

What call does the record list for O=C(N/N=C/c1ccc([N+](=O)[O-])o1)c1ccc(O)cc1 ?
inactive

What call does the record list for Cc1cc(-c2ccccc2)nnc1NCCN1CCOCC1 ?
inactive

###

protocol-description: P-glycoprotein substrates identified in KB-8-5-11 adenocarcinoma cell line, qHTS therapeutic library screen (AID 1346987); also: nearly all actives have a fitted effect of over 65% in size
assay-conditions: KB-8-5-11 (P-gp overexpressing) viability, CellTiter-Glo, 72 h; series mostly up to 44.5 µM
Results filed as inconclusive are left out. The source made the active and inactive calls. The call rests on the fitted dose curve; in most records, active means well fitted inhibition curve with a large enough effect; inconclusive means small, poorly fitted or top-dose-only effect; inactive means flat fitted curve, though single readings scatter.
A correct response names exactly one class from active, inactive

What call does the record list for CCOc1ccc(NC(C)=O)cc1 ?
inactive

What call does the record list for CC(C)(C)NC[C@H](O)COc1cccc2c1CCCC2=O ?
inactive

What call does the record list for C[C@H]1[C@H]2CC[C@H]3[C@@H]4CC=C5C[C@@H](N(C)C)CC[C@]5(C)[C@H]4CC[C@]23CN1C ?
inactive

What call does the record list for CC(C)[C@@H]1CC[C@@H](C)CC1=O ?
inactive

What call does the record list for CCOc1cc(OCC)c(C(=O)CCC(=O)O)cc1OCC ?
inactive

What call does the record list for C[N+]1(CC2COC(c3ccccc3)(C3CCCCC3)O2)CCCCC1 (centres undefined) ?
inactive

What call does the record list for Nc1nc(N)c(-c2ccccc2)s1 ?
inactive

What call does the record list for CC1=C(C(=O)O)N2C(=O)[C@@H](NC(=O)[C@H](N)c3ccccc3)[C@H]2SC1 ?
inactive

What call does the record list for COc1ccc(-c2cc(C(F)F)nn2-c2ccc(S(N)(=O)=O)cc2)cc1F ?
inactive

What call does the record list for O=C(Nc1ccc([N+](=O)[O-])cc1)Nc1ccc([N+](=O)[O-])cc1 ?
inactive

What call does the record list for CCC(CC)(CC(=O)Nc1cccc(/C=C/c2nc(C3CCC3)cs2)c1)C(=O)O ?
inactive

What call does the record list for CC(C)[N+](C)(C)CC(O)COc1cccc2ccccc12 (centres undefined) ?
inactive

What call does the record list for C#C[C@]1(OC(C)=O)CC[C@H]2[C@@H]3CCC4=C/C(=N/O)CC[C@@H]4[C@H]3CC[C@@]21CC ?
active

What call does the record list for CCOC(=O)[C@@](C)(N)Cc1ccc(O)c(O)c1 ?
inactive

What call does the record list for CC(C)(C)NC[C@H](O)COc1nsnc1N1CCOCC1 ?
inactive

What call does the record list for Cc1nc(-c2ccc(Cl)cc2)oc1COC(C)(C)C(=O)O ?
inactive

What call does the record list for Cc1ccccc1OCC(O)CO (centres undefined) ?
inactive

What call does the record list for Cc1cn([C@H]2C[C@H](F)[C@@H](CO)O2)c(=O)[nH]c1=O ?
inactive

What call does the record list for O=C(Nc1cccc(C2=NCCN2)c1)Nc1cccc(C2=NCCN2)c1 ?
inactive

What call does the record list for CCCCC(CC)COC(=O)/C=C/c1ccc(OC)cc1 (centres undefined) ?
inactive

What call does the record list for CC(=O)N[C@@H](CCC(=O)O)C(=O)O ?
inactive

What call does the record list for COc1cc(C(=S)N2CCOCC2)ccc1O ?
inactive

What call does the record list for Nc1ccc(C(=O)NCC(=O)O)cc1 ?
inactive

What call does the record list for Cc1cccc(C)c1NC(=O)CN1CCCC1 ?
inactive
